Measurement Notes: KARI assay of purified S. exigua KARI and variants with NADH (Examples 6-9)
Assay type: biochemical
Test Settings: cofactor NADH
Endpoint: U/mg NADH (specific activity)

Solved cases below.
Se1_KARI^GE11-his6: S. exigua KARI variant G60V (protein, UniProt D0WGK0 1-342, looked up, variant G60V, His6 tag, S. exigua KARI variant G60V) Ketol-acid reductoisomerase …: MSVKTKEKEMAVTILYEQDVDPKVIQGLKVGIIGYGSQGHAHALNLMDSGVDVRVGLREVSSSWKTAEEAGLKVTDMDTAAEEADVIMVLVPDEIQPKVYQEHIAAHLKAGNTLAFAHGFNIHYGYIVPPEDVNVIMCAPKGPGHIVRRQFTEGSGVPDLACVQQDATGNAWDIVLSYCWGVGGARSGIIKATFAEETEEDLFGEQAVLCGGLVELVKAGFETLTEAGYPPELAYFECYHEMKMIVDLMYESGIHFMNYSISNTAEYGEYYAGPKVINEQSREAMKEILKRIQDGSFAQEFVDDCNNGHKRLLEQREAINTHPIETTGAQIRSMFSWIKKED
0.4 U/mg
Se1_KARI^14B7: S. exigua KARI variant Y35H, S63D, I95V (protein, UniProt D0WGK0 1-342, looked up, variant Y35H S63D I95V) Ketol-acid reductoisomerase …: MSVKTKEKEMAVTILYEQDVDPKVIQGLKVGIIGHGSQGHAHALNLMDSGVDVRVGLREGSSDWKTAEEAGLKVTDMDTAAEEADVIMVLVPDEVQPKVYQEHIAAHLKAGNTLAFAHGFNIHYGYIVPPEDVNVIMCAPKGPGHIVRRQFTEGSGVPDLACVQQDATGNAWDIVLSYCWGVGGARSGIIKATFAEETEEDLFGEQAVLCGGLVELVKAGFETLTEAGYPPELAYFECYHEMKMIVDLMYESGIHFMNYSISNTAEYGEYYAGPKVINEQSREAMKEILKRIQDGSFAQEFVDDCNNGHKRLLEQREAINTHPIETTGAQIRSMFSWIKKED
0.18 U/mg
Se1_KARI^HF2-his6: S. exigua KARI variant S61C (protein, UniProt D0WGK0 1-342, looked up, variant S61C, His6 tag, S. exigua KARI variant S61C) Ketol-acid reductoisomerase …: MSVKTKEKEMAVTILYEQDVDPKVIQGLKVGIIGYGSQGHAHALNLMDSGVDVRVGLREGCSSWKTAEEAGLKVTDMDTAAEEADVIMVLVPDEIQPKVYQEHIAAHLKAGNTLAFAHGFNIHYGYIVPPEDVNVIMCAPKGPGHIVRRQFTEGSGVPDLACVQQDATGNAWDIVLSYCWGVGGARSGIIKATFAEETEEDLFGEQAVLCGGLVELVKAGFETLTEAGYPPELAYFECYHEMKMIVDLMYESGIHFMNYSISNTAEYGEYYAGPKVINEQSREAMKEILKRIQDGSFAQEFVDDCNNGHKRLLEQREAINTHPIETTGAQIRSMFSWIKKED
0.18 U/mg

Okay, next one:
GET /values?readout=U/mg NADH (specific activity)&item= Se1_KARI^LE1-his6: S. exigua KARI variant I95V (protein, UniProt D0WGK0 1-342, looked up, variant I95V, His6 tag, S. exigua KARI variant I95V) Ketol-acid reductoisomerase …: MSVKTKEKEMAVTILYEQDVDPKVIQGLKVGIIGYGSQGHAHALNLMDSGVDVRVGLREGSSSWKTAEEAGLKVTDMDTAAEEADVIMVLVPDEVQPKVYQEHIAAHLKAGNTLAFAHGFNIHYGYIVPPEDVNVIMCAPKGPGHIVRRQFTEGSGVPDLACVQQDATGNAWDIVLSYCWGVGGARSGIIKATFAEETEEDLFGEQAVLCGGLVELVKAGFETLTEAGYPPELAYFECYHEMKMIVDLMYESGIHFMNYSISNTAEYGEYYAGPKVINEQSREAMKEILKRIQDGSFAQEFVDDCNNGHKRLLEQREAINTHPIETTGAQIRSMFSWIKKED
0.3 U/mg

The values you see were collected from patent US20140295512A1.
